tested on: NCI-H2126; experiment: relative viability (nuclei count vs DMSO), 5 days (fraction); higher = more cells survive; details: first compound 8 µM
Threshold 0.8. relative viability below it: T. relative viability at it or above: F.

[
  {
    "molecule": "O=c1[nH]c2ccccc2n1C1CCN(CCCC(c2ccc(F)cc2)c2ccc(F)cc2)CC1 [Pimozide] + CS(=O)(=O)CCNCc1ccc(-c2ccc3ncnc(Nc4ccc(OCc5cccc(F)c5)c(Cl)c4)c3c2)o1 [Lapatinib] (partner 2 µM)",
    "cat": "T"
  },
  {
    "molecule": "O=c1[nH]c2ccccc2n1C1CCN(CCCC(c2ccc(F)cc2)c2ccc(F)cc2)CC1 [Pimozide] + Cc1cc(Nc2cc(N3CCN(C)CC3)nc(Sc3ccc(NC(=O)C4CC4)cc3)n2)n[nH]1 [Tozasertib] (partner 0.1 µM)",
    "cat": "T"
  },
  {
    "molecule": "O=c1[nH]c2ccccc2n1C1CCN(CCCC(c2ccc(F)cc2)c2ccc(F)cc2)CC1 [Pimozide] + C[C@]1(O)C[C@@H](c2nc(-c3ccc4ccc(-c5ccccc5)nc4c3)c3c(N)nccn32)C1 [Linsitinib] (partner 1 µM)",
    "cat": "T"
  }
]

Query: For this molecule, is relative viability lower than 0.8? O=c1[nH]c2ccccc2n1C1CCN(CCCC(c2ccc(F)cc2)c2ccc(F)cc2)CC1 [Pimozide] + CC(=O)c1c(C)c2cnc(Nc3ccc(N4CCNCC4)cn3)nc2n(C2CCCC2)c1=O [Palbociclib] (partner 0.5 µM)
Response: T

Query: For this molecule, is relative viability lower than 0.8? O=c1[nH]c2ccccc2n1C1CCN(CCCC(c2ccc(F)cc2)c2ccc(F)cc2)CC1 [Pimozide] + C[C@@H](Oc1cc(-c2cnn(C3CCNCC3)c2)cnc1N)c1c(Cl)ccc(F)c1Cl [Crizotinib] (partner 1 µM)
Response: F

----------
system: SK-MES-1; assay: relative viability (nuclei count vs DMSO), 5 days (fraction); higher = more cells survive; conditions: first compound 0.04 µM
Threshold 0.7. relative viability below it: criterion met. relative viability at it or above: criterion not met.

[
  {
    "compound": "Cc1sc2c(c1C)C(c1ccc(Cl)cc1)=N[C@@H](CC(=O)OC(C)(C)C)c1nnc(C)n1-2 [JQ1] + O=C(c1cc(Cc2n[nH]c(=O)c3ccccc23)ccc1F)N1CCN(C(=O)C2CC2)CC1 [Olaparib] (partner 8 µM)",
    "cat": "criterion met"
  },
  {
    "compound": "Cc1sc2c(c1C)C(c1ccc(Cl)cc1)=N[C@@H](CC(=O)OC(C)(C)C)c1nnc(C)n1-2 [JQ1] + N=C(N)NC(=N)NCCc1ccccc1 [Phenformin] (partner 250 µM)",
    "cat": "criterion met"
  },
  {
    "compound": "Cc1sc2c(c1C)C(c1ccc(Cl)cc1)=N[C@@H](CC(=O)OC(C)(C)C)c1nnc(C)n1-2 [JQ1] + CCNC(=O)c1noc(-c2cc(C(C)C)c(O)cc2O)c1-c1ccc(CN2CCOCC2)cc1 [Luminespib] (partner 0.01 µM)",
    "cat": "criterion not met"
  },
  {
    "compound": "Cc1sc2c(c1C)C(c1ccc(Cl)cc1)=N[C@@H](CC(=O)OC(C)(C)C)c1nnc(C)n1-2 [JQ1] + Nc1nc2[nH]cc(CCc3ccc(C(=O)N[C@@H](CCC(=O)O)C(=O)O)cc3)c2c(=O)[nH]1 [Pemetrexed] (partner 0.2 µM)",
    "cat": "criterion not met"
  }
]

Consider the record given below.
Query: For this compound, is relative viability lower than 0.7? Cc1sc2c(c1C)C(c1ccc(Cl)cc1)=N[C@@H](CC(=O)OC(C)(C)C)c1nnc(C)n1-2 [JQ1] + Cc1nc(NC(=O)N2CCC[C@H]2C(N)=O)sc1-c1ccnc(C(C)(C)C(F)(F)F)c1 [Alpelisib] (partner 2 µM)
Response: criterion not met

----------
Item-by-item account of relative viability
tested on: LK-2; assay: relative viability (nuclei count vs DMSO), 5 days (fraction); higher = more cells survive; conditions: first compound 0.8 µM
Reply: number alone, nothing else.

[
  {
    "compound": "O=c1[nH]c2ccccc2n1C1CCN(CCCC(c2ccc(F)cc2)c2ccc(F)cc2)CC1 [Pimozide] + NC(=O)Nc1cc(-c2cccc(F)c2)sc1C(=O)N[C@H]1CCCNC1 [AZD7762] (partner 0.2 µM)",
    "reading": 0.376
  }
]

Now let's try a different one.
Query: Report relative viability for Cc1cnc(-c2cnc(NCCNc3ccc(C#N)cn3)nc2-c2ccc(Cl)cc2Cl)[nH]1 + CC1(C)CCC(c2ccc(Cl)cc2)=C(CN2CCN(c3ccc(C(=O)NS(=O)(=O)c4ccc(N[C@H](CCN5CCOCC5)CSc5ccccc5)c(S(=O)(=O)C(F)(F)F)c4)cc3)CC2)C1 [Navitoclax] (partner 0.5 µM) please.
Response: 0.872

----------
system: HCC-366; assay: relative viability (nuclei count vs DMSO), 5 days (fraction); higher = more cells survive; settings: first compound 0.002 µM
measurement.name: relative viability
Reply: number alone, nothing else.

[
  {
    "molecule": "CC(=O)O[C@@]12CO[C@@H]1C[C@H](O)[C@@]1(C)C(=O)[C@H](O)C3=C(C)[C@@H](OC(=O)[C@H](O)[C@@H](NC(=O)OC(C)(C)C)c4ccccc4)C[C@@](O)([C@@H](OC(=O)c4ccccc4)[C@H]21)C3(C)C [Docetaxel] + Nc1nc2[nH]cc(CCc3ccc(C(=O)N[C@@H](CCC(=O)O)C(=O)O)cc3)c2c(=O)[nH]1 [Pemetrexed] (partner 0.2 µM)",
    "reading": 0.0677
  }
]

Now let's try a different one.
Query: Find relative viability (HCC-366) for the entry CC(=O)O[C@@]12CO[C@@H]1C[C@H](O)[C@@]1(C)C(=O)[C@H](O)C3=C(C)[C@@H](OC(=O)[C@H](O)[C@@H](NC(=O)OC(C)(C)C)c4ccccc4)C[C@@](O)([C@@H](OC(=O)c4ccccc4)[C@H]21)C3(C)C [Docetaxel] + NC(=O)Nc1cc(-c2cccc(F)c2)sc1C(=O)N[C@H]1CCCNC1 [AZD7762] (partner 0.2 µM)
Response: 0.145

----------
tested on: NCI-H2347; experiment: relative viability (nuclei count vs DMSO), 5 days (fraction); higher = more cells survive; conditions: first compound 1.265 µM
Item-by-item account of relative viability
Reply: number alone, nothing else.

Here is how some compounds turned out for relative viability.
[
  {
    "compound": "Cc1sc2c(c1C)C(c1ccc(Cl)cc1)=N[C@@H](CC(=O)OC(C)(C)C)c1nnc(C)n1-2 [JQ1] + Cc1nc(Nc2ncc(C(=O)Nc3c(C)cccc3Cl)s2)cc(N2CCN(CCO)CC2)n1 [Dasatinib] (partner 0.075 µM)",
    "reading": 0.371
  },
  {
    "compound": "Cc1sc2c(c1C)C(c1ccc(Cl)cc1)=N[C@@H](CC(=O)OC(C)(C)C)c1nnc(C)n1-2 [JQ1] + Cc1cc(Nc2cc(N3CCN(C)CC3)nc(Sc3ccc(NC(=O)C4CC4)cc3)n2)n[nH]1 [Tozasertib] (partner 0.1 µM)",
    "reading": 0.308
  },
  {
    "compound": "Cc1sc2c(c1C)C(c1ccc(Cl)cc1)=N[C@@H](CC(=O)OC(C)(C)C)c1nnc(C)n1-2 [JQ1] + O=C(CCCCCCC(=O)Nc1ccccc1)NO [Vorinostat] (partner 1 µM)",
    "reading": 0.282
  }
]

Now let's try a different one.
Query: Report relative viability for Cc1sc2c(c1C)C(c1ccc(Cl)cc1)=N[C@@H](CC(=O)OC(C)(C)C)c1nnc(C)n1-2 [JQ1] + CCNC(=O)c1noc(-c2cc(C(C)C)c(O)cc2O)c1-c1ccc(CN2CCOCC2)cc1 [Luminespib] (partner 0.01 µM) please.
Response: 0.316

----------
Item-by-item account of relative viability
system: EBC-1; experiment: relative viability (nuclei count vs DMSO), 5 days (fraction); higher = more cells survive; settings: first compound 0.05 µM
Reply: number alone, nothing else.

[
  {
    "molecule": "Nc1ccn([C@@H]2O[C@H](CO)[C@@H](O)[C@@H]2O)c(=O)n1 [Cytarabine] + CS(=O)(=O)CCNCc1ccc(-c2ccc3ncnc(Nc4ccc(OCc5cccc(F)c5)c(Cl)c4)c3c2)o1 [Lapatinib] (partner 2 µM)",
    "measurement.name": "relative viability",
    "reading": 0.185
  }
]

Now let's try a different one.
Query: Report relative viability for Nc1ccn([C@@H]2O[C@H](CO)[C@@H](O)[C@@H]2O)c(=O)n1 [Cytarabine] + COc1cc2c(Oc3ccc(NC(=O)C4(C(=O)Nc5ccc(F)cc5)CC4)cc3F)ccnc2cc1OCCCN1CCOCC1 [Foretinib] (partner 0.25 µM) please.
Response: 0.0964

----------
tested on: LU99A; assay: relative viability (nuclei count vs DMSO), 5 days (fraction); higher = more cells survive; conditions: first compound 0.01581 µM
measurement.name: relative viability
Reply: number alone, nothing else.

Here is how some compounds turned out for relative viability.
[
  {
    "compound": "Nc1ccn([C@@H]2O[C@H](CO)[C@@H](O)[C@@H]2O)c(=O)n1 [Cytarabine] + Cc1nc(NC(=O)N2CCC[C@H]2C(N)=O)sc1-c1ccnc(C(C)(C)C(F)(F)F)c1 [Alpelisib] (partner 2 µM)",
    "reading": 0.565
  },
  {
    "compound": "Nc1ccn([C@@H]2O[C@H](CO)[C@@H](O)[C@@H]2O)c(=O)n1 [Cytarabine] + COc1cccc2cc(-c3nc([C@H]4CC[C@H](C(=O)O)CC4)n4ncnc(N)c34)[nH]c12 [OSI-027] (partner 0.5 µM)",
    "reading": 0.271
  },
  {
    "compound": "COc1cc2nccc(Oc3ccc(NC(=O)Nc4cc(C)on4)c(Cl)c3)c2cc1OC [Tivozanib] + NC(=O)Nc1cc(-c2cccc(F)c2)sc1C(=O)N[C@H]1CCCNC1 [AZD7762] (partner 0.2 µM)",
    "reading": 0.342
  },
  {
    "compound": "COc1cc2nccc(Oc3ccc(NC(=O)Nc4cc(C)on4)c(Cl)c3)c2cc1OC [Tivozanib] + CS(=O)(=O)CCNCc1ccc(-c2ccc3ncnc(Nc4ccc(OCc5cccc(F)c5)c(Cl)c4)c3c2)o1 [Lapatinib] (partner 2 µM)",
    "reading": 0.924
  },
  {
    "compound": "COc1cc2nccc(Oc3ccc(NC(=O)Nc4cc(C)on4)c(Cl)c3)c2cc1OC [Tivozanib] + Nc1nc2[nH]cc(CCc3ccc(C(=O)N[C@@H](CCC(=O)O)C(=O)O)cc3)c2c(=O)[nH]1 [Pemetrexed] (partner 0.2 µM)",
    "reading": 0.176
  }
]

Query: Find relative viability (LU99A) for the entry COc1cc2nccc(Oc3ccc(NC(=O)Nc4cc(C)on4)c(Cl)c3)c2cc1OC [Tivozanib] + COc1cc2c(Oc3ccc(NC(=O)C4(C(=O)Nc5ccc(F)cc5)CC4)cc3F)ccnc2cc1OCCCN1CCOCC1 [Foretinib] (partner 0.25 µM)
Response: 0.747

Query: Find relative viability (LU99A) for the entry Nc1ccn([C@@H]2O[C@H](CO)[C@@H](O)[C@@H]2O)c(=O)n1 [Cytarabine] + Nc1nc2[nH]cc(CCc3ccc(C(=O)N[C@@H](CCC(=O)O)C(=O)O)cc3)c2c(=O)[nH]1 [Pemetrexed] (partner 0.2 µM)
Response: 0.179
